src = patent US7015228B2

Let's go through some recorded MIC values for Epidermophyton floccosum DSM 10709 together.
Measured endpoint: MIC (µg/mL)

> print(dat)
                            query.smiles  measured.endpoint  output.unit  readout.number
1     CCCCCCCNc1cc(C(C)C)nc(-c2ccccn2)n1                MIC        µg/mL              60
2  CCCCCCCCCCNc1cc(C(C)C)nc(-c2ccccn2)n1                MIC        µg/mL              60

====

Tested on: Staphylococcus hominis DMS 20328
Method summary: Minimum inhibitory concentration (MIC) in microtitre plates
Type: cell-based
Reported conditions: Table 7; 48 hours at 37° C.; MIC = ≦20% growth compared to control
Measured endpoint: Minimum inhibitory concentration (MIC) S. hominis (µg/mL)

Check out these entries, answers already filled in.
> print(dat)
                           query.smiles                               tgt  readout.number
1  COCCc1cc(NCCc2ccccc2)nc(-c2ccccn2)n1  Staphylococcus hominis DMS 20328              30
2       CCCCCCCCNc1cc(C)nc(-c2ccccn2)n1  Staphylococcus hominis DMS 20328            3.75

I = NCCCCCCCCCCCCNc1cc(C(F)(F)F)nc(-c2ccccn2)n1
II = CCCCCCCCCCCCCCCNc1nc(-c2ccccn2)nc(C)c1CC
III = CCCCCCCCCCCCCCCCNc1nc(-c2ccccn2)nc(C)c1C(C)C
IV = CCCCCCCCNc1nc(-c2ccccn2)nc(C)c1CC
Lookup: // ranking: key=Minimum inhibitory concentration (MIC) S. hominis, reverse=True Hello, could you send the labels back in the order asked? Thank you.
Found: III, II, IV, I
(III: 120 µg/mL, II: 30 µg/mL, IV: 7.5 µg/mL, I: 5 µg/mL)

====

Test system: Staphylococcus hominis DMS 20328
Method summary: Minimum inhibitory concentration (MIC) in microtitre plates
Format: cell-based
Reported conditions: Table 7; 48 hours at 37° C.; MIC = ≦20% growth compared to control
Measured endpoint: Minimum inhibitory concentration (MIC) S. hominis (µg/mL)

Reference set (2 entries):
> print(dat)
                              query.smiles  readout.number
1         CCCCCCCCCNc1cc(C)nc(-c2ccccn2)n1            3.75
2  CCCCCCCCCNc1cc(C(F)(F)F)nc(-c2ccccn2)n1            3.75

P = CCCCCCCCCCNc1cc(C)nc(-c2ccccn2)n1
Q = CCCCCCCCCCCCNc1nc(-c2ccccn2)nc(C)c1C(C)C
Lookup: Problem: Given the entries P and Q , determine which has the lower reported Minimum inhibitory concentration (MIC) S. hominis. API: response body contains the label of the selected item.
Found: P

I = CCCCCCCNc1cc(C(C)(C)C)nc(-c2ccccn2)n1
II = CC(C)(C)c1cc(NCCCCCCCCN)nc(-c2ccccn2)n1
Lookup: Lab note: record which item had the higher Minimum inhibitory concentration (MIC) S. hominis, I or II . Mark your answer with the label of the selected entry.
Found: II

====

Tested on: S. aureus ATCC 6538
Method summary: Determination of the bactericidal activity (logarithmic reduction in organism count)
Format: cell-based, Staphylococcus aureus
Reported conditions: contact for 30 minutes at a substance concentration of 120 μg/mL
Experimental: Determination of the Bactericidal Activity of Selected Compounds Casein-soybean flour-peptone broth for preparation of pre-cultures of test bacteria Examples of Test Organisms: • Staphylococcus aureus ATCC 6538 • Escherichia coli ATCC 10536 • Salmonella choleraesuis ATCC 10708 Procedure: […] After incubation, the growth is determined on the basis of the turbidity of the test batches (optical density) at 620 nm in a microplate reader. […]
Consider the following molecules and their measured Logarithmic reduction in organism count, S. aureus ATCC 6538 readings.

Below: 2 molecules and their reported Logarithmic reduction in organism count, S. aureus ATCC 6538.
> print(dat)
                          query.smiles                  tgt   result
1   CCCCCCCCCNc1nc(-c2ccccn2)nc(C)c1CC  S. aureus ATCC 6538  1–2 log
2  CCCCCCCCCCNc1nc(-c2ccccn2)nc(C)c1CC  S. aureus ATCC 6538  1–2 log

As a next step, examine the molecule that follows.
Lookup: Look up Logarithmic reduction in organism count, S. aureus ATCC 6538 with S. aureus ATCC 6538 for this molecule: CCCCCCCCNc1cc(C)nc(-c2ccccn2)n1
Found: 1–2 log

====

The following compounds are listed with their measured Minimum inhibitory concentration (MIC) E. coli NCTC 8196 values.
System: Escherichia coli NCTC 8196
Method summary: Minimum inhibitory concentration (MIC) in microtitre plates
Type: cell-based
Reported conditions: Table 8; * = significant inhibition of growth, but not complete inhibition

> print(dat)
                              query.smiles      result
1   CCCCCCCCCCCCCCCNc1cc(C)nc(-c2ccccn2)n1  >120 µg/mL
2   CCCCCCCCCCNc1nc(-c2ccccn2)nc(C)c1C(C)C   >60 µg/mL
3     COCCc1cc(NCCCCCCCCCN)nc(-c2ccccn2)n1   >60 µg/mL
4   CCCCCCCCNc1cc(C(C)(C)C)nc(-c2ccccn2)n1   >60 µg/mL
5  CCCCCCCCCCCCNc1cc(C(C)C)nc(-c2ccccn2)n1   >60 µg/mL
6      CCCCCCCNc1nc(-c2ccccn2)nc(C)c1C(C)C   >30 µg/mL
7    CCCCCCCNc1cc(C(F)(F)F)nc(-c2ccccn2)n1   >60 µg/mL
8     CCCCCCCCCNc1cc(C(C)C)nc(-c2ccccn2)n1   >60 µg/mL

Lookup: Please provide the recorded Minimum inhibitory concentration (MIC) E. coli NCTC 8196 for CCCCCCCCNc1cc(C(C)C)nc(-c2ccccn2)n1 , tested on Escherichia coli NCTC 8196.
Found: >30 µg/mL

Lookup: Find the measured Minimum inhibitory concentration (MIC) E. coli NCTC 8196: item CCCCCCCCNc1nc(-c2ccccn2)nc(C)c1CC , target or system Escherichia coli NCTC 8196.
Found: >60 µg/mL

Lookup: Param readout = Minimum inhibitory concentration (MIC) E. coli NCTC 8196; param system = Escherichia coli NCTC 8196; param query = Cc1cc(NCCCCCCCCCCCCN)nc(-c2ccccn2)n1 ; response: value
Found: >60 µg/mL

Lookup: Form field: Minimum inhibitory concentration (MIC) E. coli NCTC 8196 recorded for NCCCCCCCCCNc1cc(C(F)(F)F)nc(-c2ccccn2)n1 with Escherichia coli NCTC 8196 (enter value)
Found: >60 µg/mL

Lookup: What measured Minimum inhibitory concentration (MIC) E. coli NCTC 8196 is associated with Cc1cc(NCCCCCCCCCN)nc(-c2ccccn2)n1 on Escherichia coli NCTC 8196?
Found: >60 µg/mL

====

Tested on: Enterococcus hirae ATCC 10541
Method summary: Minimum inhibitory concentration (MIC), further microorganisms
Assay type: cell-based
Reported conditions: Table 8; * = significant inhibition of growth, but not complete inhibition
# Minimum inhibitory concentration (MIC) Enterococcus hirae ATCC 10541 per record follows

Example compounds with recorded Minimum inhibitory concentration (MIC) Enterococcus hirae ATCC 10541:
> print(dat)
                              query.smiles       result
1   Cc1nc(-c2ccccn2)nc(NCCCCCCCCCN)c1C(C)C    >60 µg/mL
2  CCCCCCCCCCCCNc1cc(C(C)C)nc(-c2ccccn2)n1  <3.75 µg/mL
3         CCCCCCCCCNc1cc(C)nc(-c2ccccn2)n1  <3.75 µg/mL
4    CC(C)c1cc(NCCCCCCCCCN)nc(-c2ccccn2)n1    >60 µg/mL
5    Cc1nc(-c2ccccn2)nc(NCCCCCCCCN)c1C(C)C    >60 µg/mL
6   CCc1c(C)nc(-c2ccccn2)nc1NCCCCCCCCCCCCN    >60 µg/mL
7      CCCCCCCNc1nc(-c2ccccn2)nc(C)c1C(C)C    7.5 µg/mL
8      COCCc1cc(NCCCCCCCCN)nc(-c2ccccn2)n1    >60 µg/mL

Lookup: Which Minimum inhibitory concentration (MIC) Enterococcus hirae ATCC 10541 is listed for COCCc1cc(NCCCCCCCCCN)nc(-c2ccccn2)n1 ?
Found: >60 µg/mL

Lookup: Param item = CCCCCCCCNc1cc(C(F)(F)F)nc(-c2ccccn2)n1 ; retrieve measured Minimum inhibitory concentration (MIC) Enterococcus hirae ATCC 10541.
Found: 15 µg/mL

Lookup: Looking for the measured Minimum inhibitory concentration (MIC) Enterococcus hirae ATCC 10541 of CCCCCCCCCNc1nc(-c2ccccn2)nc(C)c1C(C)C , can you help?
Found: 3.75 µg/mL
